experiment: self-splicing fitness, log relative to wild type (ln ratio); higher = more splicing; Tetrahymena group I intron in knt gene, E. coli kanamycin selection, DiMSum; sequences stand for … in CUCUCU…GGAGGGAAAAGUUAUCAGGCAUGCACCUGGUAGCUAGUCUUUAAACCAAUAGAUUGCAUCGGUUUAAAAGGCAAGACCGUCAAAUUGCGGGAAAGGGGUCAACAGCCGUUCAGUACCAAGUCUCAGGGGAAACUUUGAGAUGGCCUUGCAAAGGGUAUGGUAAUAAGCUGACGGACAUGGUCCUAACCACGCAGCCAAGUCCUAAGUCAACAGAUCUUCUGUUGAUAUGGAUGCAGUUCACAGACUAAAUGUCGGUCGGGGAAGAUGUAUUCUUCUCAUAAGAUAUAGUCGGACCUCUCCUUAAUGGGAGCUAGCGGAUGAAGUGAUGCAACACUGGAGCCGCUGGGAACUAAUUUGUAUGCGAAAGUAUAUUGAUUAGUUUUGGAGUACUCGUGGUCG; conditions: 37 °C;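 note: selection with 25 µg/mL kanamycin versus none on LB agar overnight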
Our labelling divides records by self-splicing fitness (ln) into ranges: c1 = under -2, c2 = from -2 up to -1, c3 = -1 and over

[[record]]
sequence_record = "GAGCAGCAAUAUUACGAUGA"
class_label = "c2"

[[record]]
sequence_record = "GGUGAGCAAUAUUACGAGCC"
class_label = "c2"

[[record]]
sequence_record = "UCGAAGCAAUAUUACGCUCA"
class_label = "c3"

[[record]]
sequence_record = "CCAGAGCAAUAUUACGUAAU"
class_label = "c1"

[[record]]
sequence_record = "UGAUAGCAAUAUUACGUCAU"
class_label = "c1"

[[record]]
sequence_record = "CAUCAGCAAUAUUACGGUGC"
class_label = "c1"

[[record]]
sequence_record = "GUCGAGCAAUAUUACGCGAG"
class_label = "c3"

[[record]]
sequence_record = "AAAUAGCAAUAUUACGUUAA"
class_label = "c1"

[[record]]
sequence_record = "GACAAGCAAUAUUACGCCUC"
class_label = "c1"

[[record]]
sequence_record = "UUCCAGCAAUAUUACGCGAA"
class_label = "c3"


stdin: Given UUCGAGCAAUAUUACGGUCA , name the class its self-splicing fitness (ln) places it in.
stdout: c2

stdin: Given AUGCAGCAAUAUUACGUUCG , name the class its self-splicing fitness (ln) places it in.
stdout: c3
